system: Abeta total; test: Cellular αLisa assay in SKNBE2 cells, Abeta total; format: cell-based, human; settings: Homo sapiens, SKNBE2, 18 h, incubated for 18 hours, read-out: Cellular αLisa assay in SKNBE2 cells Abetatotal pIC50 (converted)
measured-parameter: IC50 (nM)

Below, 5 compounds whose answers are already recorded.
[
  {
    "record-smiles": "NC1=N[C@@](c2cc(NC(=O)c3cnc(OCC(F)(F)F)cn3)ccc2F)(C2CC2)[C@@H](F)OC1",
    "scale-unit": "nM",
    "IC50": 316
  },
  {
    "record-smiles": "N#Cc1cnc(C(=O)Nc2cccc([C@@]3(C4CC4)N=C(N)CO[C@H]3C(F)(F)F)c2)c(Cl)c1",
    "scale-unit": "nM",
    "IC50": 4.9
  },
  {
    "record-smiles": "COc1cnc(C(=O)Nc2ccc(F)c([C@@]3(C)N=C(N)CO[C@@H]3F)c2)cn1",
    "scale-unit": "nM",
    "IC50": 10.5
  },
  {
    "record-smiles": "C[C@]1(c2cc(NC(=O)c3ncc(C#N)cc3Cl)ccc2F)N=C(N)CO[C@@]1(F)C(F)(F)F",
    "scale-unit": "nM",
    "IC50": 93.3
  },
  {
    "record-smiles": "C[C@]1(c2cc(NC(=O)c3cnc(OCC(F)(F)F)cn3)ccc2F)N=C(N)CO[C@@]1(F)C(F)(F)F",
    "scale-unit": "nM",
    "IC50": 69.2
  }
]

I: NC1=N[C@@](c2cc(NC(=O)c3ccc(Cl)cn3)ccc2F)(C2CC2)[C@H](C(F)(F)F)OC1
II: C[C@]1(c2cc(NC(=O)c3ncc(Cl)cc3Cl)ccc2F)N=C(N)CO[C@]1(F)C(F)(F)F
Between these two entries, I and II , state which has the higher IC50. Your answer should be the label of the entry you select.
II
(II: 195 nM, I: 12.9 nM)

###

system: Abeta 1-42; test: Cellular αLisa assay in SKNBE2 cells, Abeta 1-42; type: cell-based, human; conditions: Homo sapiens, SKNBE2, 18 h, incubated for 18 hours, read-out: Cellular αLisa assay in SKNBE2 cells Abeta 42 pIC50 (converted)
measured-parameter: IC50 (nM)

Below, 3 compounds whose answers are already recorded.
[
  {
    "compound": "C[C@]1(c2cc(NC(=O)c3ncc(Cl)cc3Cl)ccc2F)N=C(N)CO[C@@]1(F)C(F)(F)F [Compound 181]",
    "measured-parameter": "IC50",
    "result-value": 13.5
  },
  {
    "compound": "NC1=N[C@@](c2cccc(NC(=O)c3cnc(OCC(F)(F)F)cn3)c2)(C2CC2)[C@H](C(F)(F)F)OC1 [Compound 289]",
    "measured-parameter": "IC50",
    "result-value": 10
  },
  {
    "compound": "C[C@]1(c2cccc(NC(=O)c3ncc(Cl)cc3Cl)c2)N=C(N)CO[C@@]1(F)C(F)(F)F [Compound 243]",
    "measured-parameter": "IC50",
    "result-value": 240
  }
]

1: C[C@]1(c2cc(NC(=O)c3ccc(C#N)cn3)ccc2F)N=C(N)CO[C@H]1C(F)(F)F [Compound 169]
2: NC1=N[C@@](c2cccc(NC(=O)c3ncc(Cl)cc3F)c2)(C2CC2)[C@@H](F)OC1 [Compound 250]
Between these two entries, 1 and 2 , state which has the higher IC50. Your answer should be the label of the entry you select.
2
(2: 43.7 nM, 1: 6.92 nM)

###

tested on: Abeta 1-42; experiment: Cellular αLisa assay in SKNBE2 cells, Abeta 1-42; assay type: cell-based, human; conditions: Homo sapiens, SKNBE2, 18 h, incubated for 18 hours, read-out: Cellular αLisa assay in SKNBE2 cells Abeta 42 pIC50 (converted)
Structures can show the parent of a compound that is named as a salt.
measured-parameter: IC50 (µM)

[
  {
    "molecule": "C[C@]1(c2cc(NC(=O)c3ncc(Cl)cc3Cl)ccc2F)N=C(N)CO[C@]1(F)C(F)(F)F",
    "experimental-system": "Abeta 1-42",
    "measured-parameter": "IC50",
    "result-value": 0.2
  },
  {
    "molecule": "NC1=N[C@@](c2cc(NC(=O)c3ncc(Cl)cc3Cl)ccc2F)(C2CC2)[C@H](C(F)(F)F)OC1",
    "experimental-system": "Abeta 1-42",
    "measured-parameter": "IC50",
    "result-value": 0.0115
  },
  {
    "molecule": "CC1(c2cccc(-c3cncnc3)c2)COCC(N)=N1 (racemic) [Compound 3, trifluoroacetate salt]",
    "experimental-system": "Abeta 1-42",
    "measured-parameter": "IC50",
    "result-value": 0.631
  }
]

P: COc1ccc(C(=O)Nc2ccc(F)c([C@@]3(C)N=C(N)CO[C@]3(F)C(F)(F)F)c2)nc1
Q: NC1=NC(c2cccc(NC(=O)c3ccc(Cl)cn3)c2)(C2CC2)COC1 (racemic)
R: Cc1cc(Br)cnc1C(=O)Nc1cccc([C@@]2(C3CC3)N=C(N)CO[C@H]2F)c1
Put the items in sequence by IC50, from largest down. Answer format: the labels, in the requested order.
P, R, Q

###

target: recombinant BACE1 protein (Homo sapiens); assay: Biochemical FRET based assay; details: recombinant BACE1 1 μg/ml, 120 minutes at room temperature, pH 5.0; read-out: Biochemical FRET based assay pIC50 (converted)
Sequence (P56817 46-501): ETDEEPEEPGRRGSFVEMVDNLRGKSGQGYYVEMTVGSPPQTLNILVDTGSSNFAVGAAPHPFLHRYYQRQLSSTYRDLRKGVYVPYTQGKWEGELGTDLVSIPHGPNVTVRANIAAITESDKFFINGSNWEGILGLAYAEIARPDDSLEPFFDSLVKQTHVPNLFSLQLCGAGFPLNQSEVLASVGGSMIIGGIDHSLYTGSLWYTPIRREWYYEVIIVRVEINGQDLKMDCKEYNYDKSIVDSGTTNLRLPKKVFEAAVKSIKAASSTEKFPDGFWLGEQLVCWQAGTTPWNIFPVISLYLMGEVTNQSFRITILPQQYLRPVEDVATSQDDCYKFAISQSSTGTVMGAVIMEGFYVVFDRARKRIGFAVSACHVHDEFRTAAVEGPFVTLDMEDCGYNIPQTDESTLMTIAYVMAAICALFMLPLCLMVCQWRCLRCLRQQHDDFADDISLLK
Counter-ions that a name gives are not always drawn.
measured-parameter: IC50 (µM)

[
  {
    "molecule": "CC1(c2cccc(-c3ccccc3)c2)COCC(N)=N1 (racemic) [Compound 1, trifluoroacetate salt]",
    "scale-unit": "µM",
    "result-value": 24
  }
]

I: COc1cncc(-c2cccc(C3(C)COCC(N)=N3)c2)c1 (racemic) [Compound 4]
II: C[C@]1(c2cc(NC(=O)c3ncc(Cl)cc3Cl)ccc2F)N=C(N)CO[C@@]1(F)C(F)(F)F
// pick min by IC50: I , II Your answer should be the label of the entry you select.
II
(II: 0.0263 µM, I: 3.64 µM)

###

tested on: Abeta total; test: Cellular αLisa assay in SKNBE2 cells, Abeta total; format: cell-based, human; conditions: Homo sapiens, SKNBE2, 18 h, incubated for 18 hours, read-out: Cellular αLisa assay in SKNBE2 cells Abetatotal pIC50 (converted)
measured-parameter: IC50 (nM)

Below, 5 compounds whose answers are already recorded.
[
  {
    "compound": "CC1(c2cc(-c3cncnc3)c(F)cc2F)COC2(CC2)C(N)=N1 (centres unmarked)",
    "experimental-system": "Abeta total",
    "IC50 / nM": 646
  },
  {
    "compound": "C[C@]1(c2cc(NC(=O)c3ccc(C#N)cn3)ccc2F)N=C(N)CO[C@H]1C(F)(F)F",
    "experimental-system": "Abeta total",
    "IC50 / nM": 6.76
  },
  {
    "compound": "COc1cnc(C(=O)Nc2ccc(F)c([C@@]3(C)N=C(N)CO[C@@]3(F)C(F)(F)F)c2)cn1",
    "experimental-system": "Abeta total",
    "IC50 / nM": 28.2
  },
  {
    "compound": "NC1=N[C@@](c2cccc(NC(=O)c3ncc(Cl)cc3F)c2)(C2CC2)[C@@H](F)OC1",
    "experimental-system": "Abeta total",
    "IC50 / nM": 39.8
  },
  {
    "compound": "C[C@]1(c2cc(-c3cncc(C#N)c3)c(F)cc2F)N=C(N)CO[C@H]1C(F)(F)F",
    "experimental-system": "Abeta total",
    "IC50 / nM": 468
  }
]

I: CC1(c2cccc(NC(=O)c3ccc(Cl)cn3)c2)COC(F)(C(F)(F)F)C(N)=N1 (racemic) [Compound 9]
II: N#Cc1ccc(C(=O)Nc2cccc([C@@]3(C4CC4)N=C(N)CO[C@@H]3F)c2)nc1
Between these two entries, I and II , state which has the higher IC50. Your answer should be the label of the entry you select.
I
(I: 8510 nM, II: 38 nM)

###

system: Abeta 1-42; assay: Cellular αLisa assay in SKNBE2 cells, Abeta 1-42; type: cell-based, human; settings: Homo sapiens, SKNBE2, 18 h, incubated for 18 hours, read-out: Cellular αLisa assay in SKNBE2 cells Abeta 42 pIC50 (converted)
Counter-ions that a name gives are not always drawn.
measured-parameter: IC50 (µM)

[
  {
    "compound": "CC1(c2cccc(-c3ccccc3)c2)COCC(N)=N1 (racemic) [Compound 1, trifluoroacetate salt]",
    "measured-parameter": "IC50",
    "result-value": 1.48
  },
  {
    "compound": "N#Cc1cncc(-c2cccc([C@@]3(C4CC4)N=C(N)CO[C@@H]3F)c2)c1",
    "measured-parameter": "IC50",
    "result-value": 1.45
  },
  {
    "compound": "NC1=N[C@@](c2cc(NC(=O)c3ncc(Cl)cc3F)ccc2F)(C2CC2)[C@@H](F)OC1",
    "measured-parameter": "IC50",
    "result-value": 0.309
  },
  {
    "compound": "COc1cncc(-c2cccc(C3(C(F)(F)F)COCC(N)=N3)c2)c1 (racemic)",
    "measured-parameter": "IC50",
    "result-value": 3.16
  },
  {
    "compound": "C[C@@]1(c2cccc(NC(=O)c3ccc(Cl)cn3)c2)N=C(N)CO[C@H]1F (single isomer, unassigned)",
    "measured-parameter": "IC50",
    "result-value": 0.871
  }
]

1: NC1=N[C@@](c2cc(-c3cncnc3)ccc2F)(C2CC2)[C@](F)(C(F)(F)F)OC1
2: COc1cnc(C(=O)Nc2cccc([C@@]3(C4CC4)N=C(N)CO[C@]3(F)C(F)(F)F)c2)cn1
// pick min by IC50: 1 , 2 Your answer should be the label of the entry you select.
2

P: CC1(c2cccc(-c3cc(Cl)cc(Cl)c3)c2)COCC(N)=N1 (racemic)
Q: C[C@]1(c2cc(-c3cncc(Cl)c3)c(F)cc2F)N=C(N)CO[C@@]1(F)C(F)(F)F
// pick min by IC50: P , Q Your answer should be the label of the entry you select.
P
(P: 0.724 µM, Q: 4.07 µM)

I: C[C@]1(c2cccc(NC(=O)c3ccc(Cl)cn3)c2)N=C(N)CO[C@@H]1F (single isomer, unassigned)
II: CC1(c2cc(NC(=O)c3ncc(Cl)cc3F)ccc2F)N=C(N)COC1F (stereo not drawn)
III: COc1cncc(-c2cccc(C3(C)COCC(N)=N3)c2)c1 (single isomer, unassigned) [Compound 8]
Arrange these 3 compounds in increasing order of IC50. Answer format: the labels, in the requested order.
I, II, III
(I: 0.00692 µM, II: 0.012 µM, III: 0.214 µM)

I: COc1cnc(C(=O)Nc2ccc(F)c([C@@]3(C)N=C(N)CO[C@H]3C(F)(F)F)c2)cn1
II: COc1cncc(-c2ccc(F)c(C3(C)N=C(N)COC3C(F)(F)F)c2)c1 (stereo not drawn)
Between these two entries, I and II , state which has the higher IC50. Your answer should be the label of the entry you select.
II
(II: 0.2 µM, I: 0.0126 µM)
